B1: Hairpin Ribozyme (parent)
chain: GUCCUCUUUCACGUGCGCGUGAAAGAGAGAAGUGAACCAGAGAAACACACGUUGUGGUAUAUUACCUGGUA

variants of: B1; test: self-cleavage, relative activity (ratio to wild type); higher = more cleavage; co-transcriptional
Experimental readout: self-cleavage
Just the number, please, no unit attached.

{"columns": ["Mutations", "Experimental readout", "Assay value"],
 "data": [
  ["G17A A39G", "self-cleavage", 0.319]
]}

Looking up U7C G57A , I see its self-cleavage listed as 0.153

Looking up G13C A71G , I see its self-cleavage listed as 0.823

Looking up A11U C37A , I see its self-cleavage listed as 0.228

Looking up G57U A71U , I see its self-cleavage listed as 0.223

Looking up C48A U53G , I see its self-cleavage listed as 0.191

Looking up A22C G34C , I see its self-cleavage listed as 1.22

Looking up A22C A47U , I see its self-cleavage listed as 0.208

Looking up G1A C48A , I see its self-cleavage listed as 0.156

Looking up G27C C48U , I see its self-cleavage listed as 0.231

Looking up C16G G69A , I see its self-cleavage listed as 0.225

Looking up C50G U52G , I see its self-cleavage listed as 0.312

Looking up A49U U58C , I see its self-cleavage listed as 0.28

Looking up A30C U53A , I see its self-cleavage listed as 0.0771

Looking up U7C C66A , I see its self-cleavage listed as 0.217

Looking up G13A C46A , I see its self-cleavage listed as 0.124

Looking up C10U C37A , I see its self-cleavage listed as 0.364
